biological target: UniProt P67774; assay: DiFMUP-based phosphatase inhibition assay; assay type: biochemical, bovine
measurement name: pIC50
Scale for pIC50: -log10 of concentration given in mol/L; no unit attached.

# input Any idea what pIC50 came out for CN1CCN(C(=O)C2C3CCC(O3)C2C(=O)O)CC1 (stereo not shown) on UniProt P67774?
# output 6.41

###

biological target: PP2AC (Bos taurus, UniProt P67774); experiment: [32P]-phosphohistone phosphatase assay; format: biochemical, bovine
Sequence (P67774 whole entry): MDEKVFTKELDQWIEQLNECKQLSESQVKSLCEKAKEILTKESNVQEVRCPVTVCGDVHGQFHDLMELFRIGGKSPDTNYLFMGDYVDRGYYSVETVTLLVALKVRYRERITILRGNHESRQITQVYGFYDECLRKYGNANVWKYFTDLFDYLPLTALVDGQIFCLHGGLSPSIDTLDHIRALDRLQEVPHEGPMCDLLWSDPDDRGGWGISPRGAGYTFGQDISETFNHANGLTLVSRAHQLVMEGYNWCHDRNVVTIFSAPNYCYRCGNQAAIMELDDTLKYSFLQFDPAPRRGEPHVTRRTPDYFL
measurement name: IC50

# input Find IC50 (PP2AC (Bos taurus, UniProt P67774)) for the entry CN1CCN(C(=O)C2C3CCC(O3)C2C(=O)O)CC1 (stereo not shown)
# output 640 nM
